- Test: equilibrium solubility in water at 20 °C with varying cyclodextrin content
- Format: physicochemical
- Measurement context: water with cyclodextrin (HPBCD), aqueous with cosolvent or surfactant or cyclodextrin, thermodynamic from solid, water containing 65 mg/ml cyclodextrin (HPBCD)
- Protocol: For testing the influence of the cyclodextrin content in ophthalmic formulations, the solubility of Compound (A) was tested.
Measured quantity: solubility thermodynamic (mg/mL)
Report as a plain number; the unit mg/mL is understood.

**Query** Can you share its solubility thermodynamic? I mean this compound: CC(C)(NC(=O)C(N)Cc1c[nH]c2ccccc12)C(=O)O (stereo not shown)
**Result** 20.2

---

- Test: octanol/water partition coefficient log P, pH-metric method (OECD draft guideline 122)
- Format: physicochemical
- Measurement context: titrated pH 1.9 to 10.9, 1.3 to 1.9 mM, various octanol/water ratios
Measured quantity: logP

**Query** Bench note: what logP did CC(C)(NC(=O)C(N)Cc1c[nH]c2ccccc12)C(=O)O (stereo not shown) show?
**Result** < -1
